MEASURED_ON: Tau
TEST_DESCRIPTION: rat primary cortical neurons, FLIPR, 25 uM ASO
Bases are written 5' to 3'; sugars and linkages follow in the same order, as letters with counts (s phosphorothioate, o phosphodiester; PS: all linkages phosphorothioate). The collection does not say whether C is 5-methylated. l = locked nucleic acid (LNA); d = 2'-deoxy (DNA)
VALUE_KIND: calcium oscillation score

Here are 2 sequences together with their reported answers.
sequence_entry="TGTTTGATATTATCCT (sugars l3 d10 l3, PS)" value_reported="104 % of control"
sequence_entry="TTTGGCGTTCTCGC (sugars l3 d8 l3, PS)" value_reported="28.7 % of control"

Query: Tell me the measured calcium oscillation score of CCTTTGAAAGTCCTTT (sugars l3 d9 l4, PS) , please.
Response: 90.5 % of control

Query: Tell me the measured calcium oscillation score of CTCACTTTACACATTAAATT (sugars l4 d12 l4, PS) , please.
Response: 59.8 % of control

Query: Tell me the measured calcium oscillation score of TGAATAACATTAACCC (sugars l4 d8 l4, PS) , please.
Response: 54 % of control

Query: Tell me the measured calcium oscillation score of CAACTCTTTGAACACCCC (sugars l2 d14 l2, PS) , please.
Response: 91.6 % of control

###

MEASURED_ON: Tau
TEST_DESCRIPTION: rat primary cortical neurons, FLIPR, 25 uM ASO
Bases are written 5' to 3'; sugars and linkages follow in the same order, as letters with counts (s phosphorothioate, o phosphodiester; PS: all linkages phosphorothioate). The collection does not say whether C is 5-methylated. l = locked nucleic acid (LNA); d = 2'-deoxy (DNA)
VALUE_KIND: calcium oscillation score

Here are 5 sequences together with their reported answers.
sequence_entry="CAGACCATCAATTTCCC (sugars l2 d13 l2, PS)" value_kind="calcium oscillation score" value_reported="75.7 % of control"
sequence_entry="ACCCTTAGACATAACAC (sugars l3 d10 l4, PS)" value_kind="calcium oscillation score" value_reported="59.7 % of control"
sequence_entry="CAGTCTTTATTAACACT (sugars l3 d10 l4, PS)" value_kind="calcium oscillation score" value_reported="50.7 % of control"
sequence_entry="GACACCTCGTCAGCTAGCGT (sugars l3 d14 l3, PS)" value_kind="calcium oscillation score" value_reported="11.7 % of control"
sequence_entry="CATGATCTTAGGCTGG (sugars l3 d10 l3, PS)" value_kind="calcium oscillation score" value_reported="7.83 % of control"

Query: Tell me the measured calcium oscillation score of ACCCATCTTAATTCATTTAA (sugars l3 d14 l3, PS) , please.
Response: 96.1 % of control

###

MEASURED_ON: Tau
TEST_DESCRIPTION: rat primary cortical neurons, FLIPR, 25 uM ASO
Bases are written 5' to 3'; sugars and linkages follow in the same order, as letters with counts (s phosphorothioate, o phosphodiester; PS: all linkages phosphorothioate). The collection does not say whether C is 5-methylated. l = locked nucleic acid (LNA); d = 2'-deoxy (DNA)
VALUE_KIND: calcium oscillation score

sequence_entry="GCCATTTTCCATATAAT (sugars l4 d11 l2, PS)" value_kind="calcium oscillation score" value_reported="37.5 % of control"
sequence_entry="CCCTTAATTTCACCC (sugars l3 d9 l3, PS)" value_kind="calcium oscillation score" value_reported="103 % of control"
sequence_entry="TGCAAACACTCCCTCT (sugars l2 d10 l4, PS)" value_kind="calcium oscillation score" value_reported="35.4 % of control"
sequence_entry="AACCGTTTTCTTACCAC (sugars l2 d11 l4, PS)" value_kind="calcium oscillation score" value_reported="60.1 % of control"
sequence_entry="AATTTAGTCACCATCA (sugars l4 d8 l4, PS)" value_kind="calcium oscillation score" value_reported="62.1 % of control"
sequence_entry="CTTGGCTTTGGCGTT (sugars l3 d9 l3, PS)" value_kind="calcium oscillation score" value_reported="82.4 % of control"
sequence_entry="GTCTTTATTAACACTCC (sugars l4 d11 l2, PS)" value_kind="calcium oscillation score" value_reported="63.3 % of control"
sequence_entry="CTCAGATTTTACTTCCAC (sugars l4 d12 l2, PS)" value_kind="calcium oscillation score" value_reported="43.1 % of control"

Query: Tell me the measured calcium oscillation score of TCAGGTCAACTGGTTT (sugars l3 d10 l3, PS) , please.
Response: 95.9 % of control

Query: Tell me the measured calcium oscillation score of CAACTCAACATTACCCTTA (sugars l4 d13 l2, PS) , please.
Response: 81.1 % of control
